Target: E. coli GluRS + S. cerevisiae tRNA^Phe (Escherichia coli, UniProt P04805)
Construct: His tag (histidine tag) (C); made in house
Sequence (P04805 whole entry): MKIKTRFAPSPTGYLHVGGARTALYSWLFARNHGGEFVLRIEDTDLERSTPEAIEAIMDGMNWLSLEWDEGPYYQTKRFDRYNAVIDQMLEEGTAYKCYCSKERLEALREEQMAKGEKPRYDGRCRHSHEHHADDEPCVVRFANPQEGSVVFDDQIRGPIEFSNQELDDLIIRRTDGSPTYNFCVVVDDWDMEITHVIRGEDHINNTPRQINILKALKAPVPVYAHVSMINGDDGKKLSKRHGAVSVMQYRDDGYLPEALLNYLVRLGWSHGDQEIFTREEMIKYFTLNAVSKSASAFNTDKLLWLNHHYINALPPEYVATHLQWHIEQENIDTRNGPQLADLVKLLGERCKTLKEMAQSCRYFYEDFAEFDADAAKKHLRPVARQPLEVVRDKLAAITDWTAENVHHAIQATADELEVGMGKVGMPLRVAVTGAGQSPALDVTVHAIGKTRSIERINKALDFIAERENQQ
Test: Isothermal titration microcalorimetry of Glu-AMS binding to GluRS in the presence of non-cognate tRNA^Phe
Settings: Kd (dissociation constant), single ITC run; tRNA^Phe 11.23 µM; 303 K; [ligand] 90 µM; [GluRS] 2.198 µM; Kd = 1/Kb
Protocol: Overproduction and purification of E. coli GluRS were performed as previously described with the following modifications. A C-terminal histidine-tagged GluRS was used instead of the N-terminal tagged one. The overproduction was induced overnight at 30°C with 1 mM IPTG. Overproduction and purification of E. coli tRNA^Glu-enriched total tRNA was done as described. […] Saccharomyces cerevisiae tRNA^Phe, used as a negative control, was purchased from Sigma-Aldrich (cat No: R4018). […]
measurement kind: Kd (nM)
Kindly answer with a numeric value in nM, unit omitted.

Fill in the blank: the reported Kd of Nc1ncnc2c1ncn2[C@@H]1O[C@H](COS(=O)(=O)NC(=O)[C@@H](N)CCC(=O)O)[C@@H](O)[C@H]1O [Glu-AMS, 5’-O-[N-(L-glutamyl)sulfamoyl]adenosine] is ____.
478

Data origin, for the record: paper PMC4393105
